TESTED TARGET: CaM (Bos taurus)
Construct: made in house; host or cells: E. coli BL21 (DE3)
EXPERIMENTAL DETAILS: Pull-down assay with immobilized protein and LSM libraries
Assay type: binding, bovine
TEST PARAMETERS: H14 library; 1:2 stoichiometry assumed; read-out: Surface mapping KD (apparent)
Note to self: Kd under 40 µM means fulfilled, ties and anything higher get not fulfilled.

The following compounds have reported results that may help.
[
  {
    "CHEMICAL STRUCTURE": "CC(C)[C@@H](CC(=O)N[C@H]1CCCC[C@@H]1C(N)=O)NC(=O)[C@H]1CCCC[C@@H]1NC(=O)[C@H]1CCCC[C@@H]1NC(=O)C[C@H](CCCNC(=N)N)NC(=O)[C@H]1CCCC[C@@H]1N",
    "GROUP LABEL": "fulfilled"
  },
  {
    "CHEMICAL STRUCTURE": "CC[C@H](C)[C@@H](CC(=O)N[C@H]1CCCC[C@@H]1C(N)=O)NC(=O)[C@H]1CCCC[C@@H]1NC(=O)[C@H]1CCCC[C@@H]1NC(=O)C[C@H](CCC(N)=O)NC(=O)[C@H]1CCCC[C@@H]1N",
    "GROUP LABEL": "not fulfilled"
  },
  {
    "CHEMICAL STRUCTURE": "C[C@@H](CC(=O)N[C@H]1CCCC[C@@H]1C(N)=O)NC(=O)[C@H]1CCCC[C@@H]1NC(=O)[C@H]1CCCC[C@@H]1NC(=O)C[C@H](CC(N)=O)NC(=O)[C@H]1CCCC[C@@H]1N",
    "GROUP LABEL": "not fulfilled"
  },
  {
    "CHEMICAL STRUCTURE": "C[C@@H](CC(=O)N[C@H]1CCCC[C@@H]1C(N)=O)NC(=O)[C@H]1CCCC[C@@H]1NC(=O)[C@H]1CCCC[C@@H]1NC(=O)C[C@H](CO)NC(=O)[C@H]1CCCC[C@@H]1N",
    "GROUP LABEL": "not fulfilled"
  },
  {
    "CHEMICAL STRUCTURE": "NC(=O)C[C@@H](CC(=O)N[C@H]1CCCC[C@@H]1C(=O)N[C@H]1CCCC[C@@H]1C(=O)N[C@H](CC(=O)N[C@H]1CCCC[C@@H]1C(N)=O)Cc1c[nH]c2ccccc12)NC(=O)[C@H]1CCCC[C@@H]1N",
    "GROUP LABEL": "fulfilled"
  }
]

Is 40 µM strictly greater than the compound's reported Kd? compound: `C[C@@H](CC(=O)N[C@H]1CCCC[C@@H]1C(=O)N[C@H]1CCCC[C@@H]1C(=O)N[C@H](CC(=O)N[C@H]1CCCC[C@@H]1C(N)=O)Cc1ccccc1)NC(=O)[C@H]1CCCC[C@@H]1N`
fulfilled

Is 40 µM strictly greater than the compound's reported Kd? compound: `CC(C)C[C@@H](CC(=O)N[C@H]1CCCC[C@@H]1C(N)=O)NC(=O)[C@H]1CCCC[C@@H]1NC(=O)[C@H]1CCCC[C@@H]1NC(=O)C[C@H](C)NC(=O)[C@H]1CCCC[C@@H]1N`
fulfilled

Reference source: paper PMC8162404
